meta.source: patent US20210188843A1

- PROTOCOL: Solubility pH 7.4
- Assay type: physicochemical
- TEST CONDITIONS: aqueous buffer, Table 1
QUANTITY NAME: solubility

Prompt: Note solubility for the compound shown: Cc1ccc(C#N)cc1-n1c(=N)n(C)c2cnc3ccc(C4=CCN(C)C4)cc3c21
Completion: > 39 µg/mL

Prompt: Note solubility for the compound shown: Cc1ccc(C(F)(F)F)cc1-n1c(=N)n(C)c2cnc3ccc(-c4ccc(Cl)cc4)cc3c21
Completion: < 1 µg/mL

Prompt: Note solubility for the compound shown: Cn1c(=N)n([C@H]2CC[C@@H](N3CCOCC3)CC2)c2c3cc(-c4ccc(Cl)cc4)ccc3ncc21
Completion: > 47 µg/mL

Pending compound:
Prompt: Note solubility for the compound shown: Cn1c(=N)n(-c2cccc(N3CCNCC3)c2)c2c3cc(-c4ccc(Cl)cc4)ccc3ncc21
Completion: > 46 µg/mL

====

- PROTOCOL: Solubility pH 7.4
- Type: physicochemical
- TEST CONDITIONS: aqueous buffer, Table 2
QUANTITY NAME: solubility

Solved cases below.
Prompt: Note solubility for the compound shown: CCC(=O)/N=c1/ccc2cnc3ccc(-c4ccc(Cl)cc4)cc3c2n1-c1ccc(C(=O)NC2CC2)cc1
Completion: < 1 µg/mL

Prompt: Note solubility for the compound shown: Cc1ccc([S+](=O)([O-])/N=c2\ccc3cnc4ccc(-c5ccc(Cl)cc5)cc4c3n2-c2ccc(C(=O)NC3CC3)cc2)cc1
Completion: < 1 µg/mL

Prompt: Note solubility for the compound shown: N=c1ccc2cnc3ccc(-c4ccc(N)nc4)cc3c2n1-c1cccc(C(F)(F)F)c1
Completion: > 64 µg/mL

Prompt: Note solubility for the compound shown: N=c1ccc2cnc3ccc(-c4ccc(Cl)cc4)cc3c2n1-c1ccc(C(=O)NC2CC2)cc1
Completion: > 69 µg/mL

Pending compound:
Prompt: Note solubility for the compound shown: C/N=c1\ccc2cnc3ccc(-c4ccc(Cl)cc4)cc3c2n1-c1ccc(C(=O)NC2CC2)cc1
Completion: < 1 µg/mL

====

- PROTOCOL: PAMPA permeability
- Type: in vitro ADME
- TEST CONDITIONS: Table 1
QUANTITY NAME: Papp (×10⁻⁶ cm/s)

Solved cases below.
Prompt: Note Papp for the molecule shown: Cc1ccc(C#N)cc1-n1c(=N)n(C)c2cnc3ccc(C4=CCN(C)C4)cc3c21 [Compound 60]
Completion: 2

Prompt: Note Papp for the molecule shown: Cc1ccc(C#N)cc1-n1/c(=N/C#N)n(C)c2cnc3ccc(-c4ccc(Cl)cc4)cc3c21 [Compound 8]
Completion: 1190

Prompt: Note Papp for the molecule shown: Cc1ccc(C#N)cc1-n1c(=N)n(C)c2cnc3ccc(-c4cnn(C)c4)cc3c21 [Compound 136]
Completion: 89.5

[I] Cc1ccc(C#N)cc1-n1c(=N)n(C)c2cnc3ccc(-c4ccc(Cl)cc4)cc3c21 [Compound 137]
[II] Cc1ccc(C#N)cc1-n1/c(=N/S(N)(=O)=O)n(C)c2cnc3ccc(-c4ccc(Cl)cc4)cc3c21 [Compound 100]
Prompt: In terms of reported Papp, does I or II have the smaller number? Write the label of whichever entry you select.
Completion: II

[a] CC(=O)NC1CCN(c2cc(C)c(-n3c(=N)n(C)c4cnc5ccc(-c6ccc(Cl)cc6)cc5c43)cc2C#N)CC1 [Compound 132]
[b] Cn1c(=N)n(-c2cccc(Cl)c2)c2c3cc(-c4ccc(Cl)cc4)ccc3ncc21 [Compound 28]
[c] Cc1ccc(C#N)cc1-n1/c(=N/C(N)=O)n(C)c2cnc3ccc(-c4ccc(F)cc4)cc3c21 [Compound 55]
Prompt: Order field: Papp | Direction: descending (largest first) Arrange the labels as the request states and list them.
Completion: c, b, a

[I] Cn1c(=N)n(-c2ccc(C(=O)NC3CC3)cc2)c2c3cc(-c4ccc(Cl)cc4)ccc3ncc21 [Compound 65]
[II] Cn1c(=N)n(-c2ccccc2C#N)c2c3cc(-c4ccc(Cl)cc4)ccc3ncc21 [Compound 68]
Prompt: Hi team, can someone confirm which has the larger Papp: I or II ? Thanks. Write the label of whichever entry you select.
Completion: II

[A] CC(=O)N1CCN(c2cc(C)c(-n3c(=N)n(C)c4cnc5ccc(-c6ccc(Cl)cc6)cc5c43)cc2C#N)CC1 [Compound 109]
[B] Cn1c(=N)n(-c2cnc(N3CCNCC3)c(C#N)c2)c2c3cc(-c4ccc(Cl)cc4)ccc3ncc21 [Compound 48]
Prompt: Hi team, can someone confirm which has the larger Papp: A or B ? Thanks. Write the label of whichever entry you select.
Completion: A
